biological target: ABCB1 (P-glycoprotein) (Homo sapiens, UniProt P08183); experiment: TP_TRANSPORTER: inhibition of Digoxin transepithelial transport (basal to apical) (Digoxin: 5 uM, S-mephenytoin: 100 uM) in Caco-2 cells; type: functional, cell-based; conditions: Caco-2, probe digoxin
Sequence (P08183 whole entry): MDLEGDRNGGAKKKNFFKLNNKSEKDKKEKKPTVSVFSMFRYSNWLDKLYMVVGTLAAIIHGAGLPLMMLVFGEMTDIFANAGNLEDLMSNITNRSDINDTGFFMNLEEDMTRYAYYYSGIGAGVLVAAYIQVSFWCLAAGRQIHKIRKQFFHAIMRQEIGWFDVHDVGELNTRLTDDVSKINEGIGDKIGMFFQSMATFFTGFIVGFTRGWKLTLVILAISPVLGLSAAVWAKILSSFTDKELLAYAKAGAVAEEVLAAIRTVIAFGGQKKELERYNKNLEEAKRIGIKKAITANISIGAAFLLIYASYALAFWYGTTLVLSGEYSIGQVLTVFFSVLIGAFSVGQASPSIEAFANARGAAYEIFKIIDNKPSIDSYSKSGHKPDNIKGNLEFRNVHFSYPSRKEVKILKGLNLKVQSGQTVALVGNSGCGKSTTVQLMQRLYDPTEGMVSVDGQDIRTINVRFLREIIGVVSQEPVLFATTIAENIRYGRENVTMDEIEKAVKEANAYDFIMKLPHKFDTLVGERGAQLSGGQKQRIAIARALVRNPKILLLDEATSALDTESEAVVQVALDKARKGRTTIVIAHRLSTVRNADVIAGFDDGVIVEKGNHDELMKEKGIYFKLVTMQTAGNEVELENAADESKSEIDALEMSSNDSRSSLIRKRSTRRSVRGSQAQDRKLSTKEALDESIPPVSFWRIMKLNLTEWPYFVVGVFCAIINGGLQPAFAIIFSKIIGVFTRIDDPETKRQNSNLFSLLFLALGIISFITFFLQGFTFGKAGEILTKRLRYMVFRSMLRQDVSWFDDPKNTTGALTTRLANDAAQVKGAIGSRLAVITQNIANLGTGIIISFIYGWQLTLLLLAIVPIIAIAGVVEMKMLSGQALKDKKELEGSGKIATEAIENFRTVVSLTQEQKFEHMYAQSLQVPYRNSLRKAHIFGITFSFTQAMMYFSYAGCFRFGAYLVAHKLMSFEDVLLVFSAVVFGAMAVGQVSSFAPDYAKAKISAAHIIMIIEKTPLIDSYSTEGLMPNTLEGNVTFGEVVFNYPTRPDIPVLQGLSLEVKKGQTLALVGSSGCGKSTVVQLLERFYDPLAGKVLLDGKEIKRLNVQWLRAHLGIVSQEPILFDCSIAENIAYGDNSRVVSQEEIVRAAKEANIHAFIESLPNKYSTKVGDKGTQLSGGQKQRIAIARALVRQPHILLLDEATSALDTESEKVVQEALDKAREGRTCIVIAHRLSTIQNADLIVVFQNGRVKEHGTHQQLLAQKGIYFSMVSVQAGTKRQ
Observed Property: inhibition at 100 µM (%)

mol=CC[C@@]1(c2ccccc2)NC(=O)N(C)C1=O observed_property="inhibition at 100 µM" observed_result=42

###

biological target: ABCB1 (P-glycoprotein) (Homo sapiens, UniProt P08183); assay: TP_TRANSPORTER: inhibition of Digoxin transepithelial transport (basal to apical)(Digoxin: 5 uM, 6beta-hydroxycortisol: 100 uM) in Caco-2 cells; assay type: functional, cell-based; conditions: Caco-2, probe digoxin
Observed Property: inhibition at 100 µM (%)

mol=C[C@]12CCC(=O)C=C1[C@H](O)C[C@@H]1[C@@H]2[C@@H](O)C[C@@]2(C)[C@H]1CC[C@]2(O)C(=O)CO measured_target="ABCB1 (P-glycoprotein) (Homo sapiens, UniProt P08183)" observed_result=57

###

molecular target: ABCB1 (P-glycoprotein) (Homo sapiens); assay: TP_TRANSPORTER: inhibition of Digoxin transepithelial transport (basal to apical)(Digoxin: 5 uM, Tamoxifen: 100 uM) in Caco-2 cells; type: functional, cell-based; conditions: Caco-2, probe digoxin
Observed Property: inhibition at 100 µM (%)

mol=CC/C(=C(\c1ccccc1)c1ccc(OCCN(C)C)cc1)c1ccccc1 u=% observed_result=86

###

molecular target: ABCB1 (P-glycoprotein) (Homo sapiens); test: TP_TRANSPORTER: inhibition of Digoxin transepithelial transport (basal to apical) (Digoxin: 5 uM, Erythromycin: 100 uM) in Caco-2 cells; assay type: functional, cell-based; details: Caco-2, probe digoxin
Observed Property: inhibition at 100 µM (%)

molecule="CC[C@H]1OC(=O)[C@H](C)[C@@H](O[C@H]2C[C@@](C)(OC)[C@@H](O)[C@H](C)O2)[C@H](C)[C@@H](O[C@@H]2O[C@H](C)C[C@H](N(C)C)[C@H]2O)[C@](C)(O)C[C@@H](C)C(=O)[C@H](C)[C@@H](O)[C@]1(C)O [ERYTHROMYCIN]" u=% observed_result=101

###

target: ABCB1 (P-glycoprotein) (Homo sapiens, UniProt P08183); assay: TP_TRANSPORTER: inhibition of Digoxin transepithelial transport (basal to apical) (Digoxin: 5 uM, Lovastatin: 100 uM) in Caco-2 cells; type: functional, cell-based; conditions: Caco-2, probe digoxin
Observed Property: inhibition at 100 µM (%)

compound="CC[C@H](C)C(=O)O[C@H]1C[C@@H](C)C=C2C=C[C@H](C)[C@H](CC[C@@H]3C[C@@H](O)CC(=O)O3)[C@H]21 [LOVASTATIN]" observed_property="inhibition at 100 µM" observed_result=65

###

target: ABCB1 (P-glycoprotein) (Homo sapiens, UniProt P08183); test: TP_TRANSPORTER: inhibition of Digoxin transepithelial transport (basal to apical)(Digoxin: 5 uM, Midazolam: 100 uM) in Caco-2 cells; assay type: functional, cell-based; settings: Caco-2, probe digoxin
Observed Property: inhibition at 100 µM (%)

mol=Cc1ncc2n1-c1ccc(Cl)cc1C(c1ccccc1F)=NC2 u=% observed_result=74
